This collection of values is drawn from paper PMC12300041.

For DAPK2 (Homo sapiens, UniProt Q9UIK4), measured Kd is reported for the entries below.
Write the answer as a number in µM, unit excluded.

// returns reported Kd for input O=C1Nc2c(cc([N+](=O)[O-])c3c2CCCC3)C1=NO [Compound 5d]
0.2

Query: Kd; subject: O=C1Nc2c(ccc3c2CCCC3)C1=NO [Compound 5a]
7.7

* * *

target: UniProt P51617
Sequence (P51617 whole entry): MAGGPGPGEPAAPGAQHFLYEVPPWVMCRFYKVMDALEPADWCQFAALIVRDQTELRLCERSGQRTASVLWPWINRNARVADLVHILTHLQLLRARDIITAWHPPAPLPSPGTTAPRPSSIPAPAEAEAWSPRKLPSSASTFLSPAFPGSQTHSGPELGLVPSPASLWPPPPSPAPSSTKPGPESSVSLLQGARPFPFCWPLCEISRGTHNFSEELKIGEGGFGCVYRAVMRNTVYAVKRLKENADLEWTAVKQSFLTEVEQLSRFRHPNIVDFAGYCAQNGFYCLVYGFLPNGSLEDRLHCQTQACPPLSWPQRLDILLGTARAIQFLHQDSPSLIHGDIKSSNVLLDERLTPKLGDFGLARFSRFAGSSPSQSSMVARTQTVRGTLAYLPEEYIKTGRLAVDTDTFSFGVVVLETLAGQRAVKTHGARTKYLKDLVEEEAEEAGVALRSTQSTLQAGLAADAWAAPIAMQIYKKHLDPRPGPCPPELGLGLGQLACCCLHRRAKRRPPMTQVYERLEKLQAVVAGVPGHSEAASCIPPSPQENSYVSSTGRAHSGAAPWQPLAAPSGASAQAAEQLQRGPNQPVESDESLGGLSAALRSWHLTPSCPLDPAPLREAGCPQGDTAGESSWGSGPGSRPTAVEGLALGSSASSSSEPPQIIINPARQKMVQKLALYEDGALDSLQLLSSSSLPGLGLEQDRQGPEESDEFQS
EXPERIMENTAL ENDPOINT: Kd (µM)
Give the quantity in µM, number only.

Hello, I am looking for reported Kd with UniProt P51617 for O=C1Nc2c(cc([N+](=O)[O-])c3c2CCCC3)C1=NO . Could you help?
0.67
